- Method notes: Toxicity against human foreskin fibroblasts at 25 uM after 48 hrs by MTT method
- Assay type: cell-based, Fibroblast
- Measurement parameters: read-out: Survival
Reported endpoint: viability at 48 h, 25 µM (%)
Please give a number only; it is taken to be in %.

Exam item: Quick one: viability at 48 h, 25 µM for Nc1ccc(S(=O)(=O)Nc2ncccn2)cc1 [SULFADIAZINE] ?
Marked response: 99.8

Exam item: Quick one: viability at 48 h, 25 µM for `COc1ccc(CSc2ncnc3c2ccn3[C@@H]2O[C@H](CO)[C@@H](O)[C@H]2O)cc1` ?
Marked response: 100

Exam item: Quick one: viability at 48 h, 25 µM for `N#Cc1ccc(CSc2ncnc3c2ccn3[C@@H]2O[C@H](CO)[C@@H](O)[C@H]2O)cc1` ?
Marked response: 94.3

Exam item: Quick one: viability at 48 h, 25 µM for CCc1nc(N)nc(N)c1-c1ccc(Cl)cc1 [PYRIMETHAMINE] ?
Marked response: 108

* * *

- Target under test: Adenosine kinase (Toxoplasma gondii)
- Sequence (Q9TVW2 whole entry): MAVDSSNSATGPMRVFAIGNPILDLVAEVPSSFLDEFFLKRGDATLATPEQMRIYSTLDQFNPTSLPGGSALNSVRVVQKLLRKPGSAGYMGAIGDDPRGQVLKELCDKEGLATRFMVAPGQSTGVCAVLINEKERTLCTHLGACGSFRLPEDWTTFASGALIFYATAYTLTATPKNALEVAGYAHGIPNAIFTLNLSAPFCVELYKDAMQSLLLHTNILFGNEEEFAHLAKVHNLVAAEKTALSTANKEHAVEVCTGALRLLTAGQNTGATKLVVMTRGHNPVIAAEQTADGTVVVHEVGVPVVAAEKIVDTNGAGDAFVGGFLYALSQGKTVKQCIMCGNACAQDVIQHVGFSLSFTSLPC
- Method notes: Binding affinity to purified Toxoplasma gondii adenosine kinase
I'd be grateful if you could share measured Ki for these entries.
Please give a number only; it is taken to be in µM.

Exam item: Recorded Ki for `OC[C@H]1O[C@@H](n2ccc3c(SCc4cccc(C(F)(F)F)c4)ncnc32)[C@H](O)[C@@H]1O` with Adenosine kinase (Toxoplasma gondii), please?
Marked response: 22

Exam item: Recorded Ki for `O=[N+]([O-])c1cccc(CSc2ncnc3c2ccn3[C@@H]2O[C@H](CO)[C@@H](O)[C@H]2O)c1` with Adenosine kinase (Toxoplasma gondii), please?
Marked response: 45

Exam item: Recorded Ki for `OC[C@H]1O[C@@H](n2ccc3c(SCc4ccc(Br)cc4)ncnc32)[C@H](O)[C@@H]1O` with Adenosine kinase (Toxoplasma gondii), please?
Marked response: 253

Exam item: Recorded Ki for `C=Cc1ccc(CSc2ncnc3c2ccn3[C@@H]2O[C@H](CO)[C@@H](O)[C@H]2O)cc1` with Adenosine kinase (Toxoplasma gondii), please?
Marked response: 180

* * *

I'd be grateful if you could share measured survival at 5 µM for these entries.
- Tested on: Toxoplasma gondii
- Method notes: Antitoxoplasma activity against wild type Toxoplasma gondii RH assessed as survival at 5 uM after 18 hrs by [5,6-[…]]uracil incorporation assay
- Type: functional
Please give a number only; it is taken to be in %.

Exam item: Quick one: survival at 5 µM for Nc1ccc(S(=O)(=O)Nc2ncccn2)cc1 [SULFADIAZINE] ?
Marked response: 74.6

Exam item: Quick one: survival at 5 µM for `COc1ccc(CSc2ncnc3c2ccn3[C@@H]2O[C@H](CO)[C@@H](O)[C@H]2O)cc1` ?
Marked response: 49.8

Exam item: Quick one: survival at 5 µM for CCc1nc(N)nc(N)c1-c1ccc(Cl)cc1 [PYRIMETHAMINE] ?
Marked response: 55.6

Exam item: Quick one: survival at 5 µM for `N#Cc1ccc(CSc2ncnc3c2ccn3[C@@H]2O[C@H](CO)[C@@H](O)[C@H]2O)cc1` ?
Marked response: 52.5

* * *

- Test system: Toxoplasma gondii
- Method notes: Antitoxoplasma activity against wild type Toxoplasma gondii RH assessed as survival after 18 hrs by [5,6-[…]]uracil incorporation assay
- Type: functional, organism-based
Reported endpoint: pIC50
To interpret pIC50, take it as minus log10 of a concentration measured in moles per litre.

Exam item: Quick one: pIC50 for `CCc1nc(N)nc(N)c1-c1ccc(Cl)cc1` ?
Marked response: 5.23

Exam item: Quick one: pIC50 for `COc1ccc(CSc2ncnc3c2ccn3[C@@H]2O[C@H](CO)[C@@H](O)[C@H]2O)cc1` ?
Marked response: 5.34

Exam item: Quick one: pIC50 for `Nc1ccc(S(=O)(=O)Nc2ncccn2)cc1` ?
Marked response: 4.39

Exam item: Quick one: pIC50 for `N#Cc1ccc(CSc2ncnc3c2ccn3[C@@H]2O[C@H](CO)[C@@H](O)[C@H]2O)cc1` ?
Marked response: 5.28
